# Tested on: RSV A2 strain
# assay.name: In vitro CPE (CytoPathic Effect) inhibition effect evaluation test, RSV type A
# Type: cell-based
# reported.conditions: human respiratory syncytial virus; inhibitory effect against RSV type A (RSV A2 strain), HEp-2 cells, CPE inhibition; read-out: EC50
observed.property: EC50

Past entries and their recorded results:
Measured EC50, O=C(NC1(C(=O)O)C2CC3CC(C2)CC1C3)c1cnc(-c2cn(C3CCC(F)(F)CC3)c3cc(OC4CCN(C5CCOC5)CC4)ccc23)nc1C(F)(F)F (racemic) [Compound I-277] : < 10 nM

Measured EC50, CC(F)(F)c1nc(-c2cn(C3CCOCC3)c3cc(OC4CC(N5CC(F)(F)C5)C4)ccc23)ncc1C(=O)NC1(C(=O)O)C2CC3CC(C2)CC1C3 (single isomer, unassigned) [Compound I-621] : < 10 nM

New cases:
Measured EC50, O=C(NC1(C(=O)O)C2CC3CC(C2)CC1C3)c1cnc(N2CC3(CCOCC3)c3cc(C(=O)N4CC(F)(F)C4)ccc32)nc1C(F)(F)F (stereo not drawn) [Compound I-491] : < 10 nM

---

# Test system: RSV A2 strain
# assay.name: In vitro CPE (CytoPathic Effect) inhibition effect evaluation test, RSV type A
# Format: cell-based
# reported.conditions: human respiratory syncytial virus; inhibitory effect against RSV type A (RSV A2 strain), HEp-2 cells, CPE inhibition; read-out: EC50
observed.property: EC50

Log: RSV A2 strain, molecule O=C(NC1(C(=O)O)C2CC3CC(C2)CC1C3)c1cnc(N2CC3(CCOCC3)c3cc(-n4ncc5cccnc54)ccc32)nc1C(F)(F)F (stereo not drawn) , EC50 = < 10 nM

Log: RSV A2 strain, molecule O=C(NC1(C(=O)O)C2CC3CC(C2)CC1C3)c1cnc(-c2cn(C3CCC(F)(F)CC3)c3ccc(OC4CCN(C5COC5)CC4)cc23)nc1C(F)(F)F (stereo not drawn) , EC50 = 10 to 100 nM

Please turn your attention to the following entry.
Log: RSV A2 strain, molecule "CN(C)S(=O)(=O)NC(=O)C1(NC(=O)c2cnc(N3CCc4cc(OCCC5CCOCC5)ccc43)nc2C(F)(F)F)CCCCC1" , EC50 = 10 to 100 nM

---

This section presents compounds with their documented EC50 values.
# Test system: RSV A2 strain
# assay.name: In vitro CPE (CytoPathic Effect) inhibition effect evaluation test, RSV type A
# Type: cell-based
# reported.conditions: human respiratory syncytial virus; inhibitory effect against RSV type A (RSV A2 strain), HEp-2 cells, CPE inhibition; read-out: EC50

Past entries and their recorded results:
Measured EC50, COC1CCC(n2cc(-c3ncc(C(=O)NC4(C(=O)O)C5CC6CC(C5)CC4C6)c(C(F)(F)F)n3)c3ccc(OC4CCN(c5ncc(F)cn5)CC4)cc32)CC1 (single isomer, unassigned) [Compound I-423] : < 10 nM

Measured EC50, O=C(NC1(C(=O)O)C2CC3CC(C2)CC1C3)c1cnc(N2CC3(CCCCC3)c3cc(O[C@H]4CC[C@@H](ON=C5CCC(F)(F)CC5)CC4)ccc32)nc1C(F)(F)F (some centres unmarked) [Compound I-457] : 10 to 100 nM

Measured EC50, CC(F)(F)c1nc(N2CC3(CCOCC3)c3cc(O[C@@H]4CCN(c5ncc(F)cn5)C4)ccc32)ncc1C(=O)NC1(C(=O)O)C2CC3CC(C2)CC1C3 (some centres unmarked) [Compound I-560] : < 10 nM

Measured EC50, CC(F)(F)c1nc(N2CC3(CCOCC3)c3cc(OC4CCN(C5CC(F)(F)C5)CC4)ccc32)ncc1C(=O)NC1(C(=O)O)C2CC3CC(C2)CC1C3 (centres unmarked) [Compound I-551] : < 10 nM

New cases:
Measured EC50, O=C(NC1(C(=O)O)C2CC3CC(C2)CC1C3)c1ccc(-c2cn(C3CCC(F)(F)CC3)c3cc(O[C@H]4CC[C@H](N5CC(F)(F)C5)CC4)ccc23)nc1C(F)(F)F (some centres unmarked) [Compound I-452] : < 10 nM

---

This section presents compounds with their documented EC50 values.
# System: RSV A2 strain
# assay.name: In vitro CPE (CytoPathic Effect) inhibition effect evaluation test, RSV type A
# Type: cell-based
# reported.conditions: human respiratory syncytial virus; inhibitory effect against RSV type A (RSV A2 strain), HEp-2 cells, CPE inhibition; read-out: EC50
# Experimental: The test sample is diluted in advance to an appropriate concentration with DMSO, and 3-fold series of serial dilutions were prepared on a 384-well plate (0.32 μL/well). […] The luminescent signal was then measured by EnVision (PerkinElmer). […] In the case of evaluation against RSV type B, RSV B (Wash/18537 strain) was infected in the same manner as the type A, cultured for 5 days, and quantitated in the same manner as for the A2 strain.

Log: RSV A2 strain, compound CC(F)(F)c1nc(N2CC3(CCOCC3)c3cc(OC4CN(c5ncc(F)cn5)C4)ccc32)ncc1C(=O)NC1(C(=O)O)C2CC3CC(C2)CC1C3 (centres unmarked) , EC50 = < 10 nM

New cases:
Log: RSV A2 strain, compound CC(F)(F)c1nc(N2CC3(CCOCC3)c3cc(O[C@H]4CC[C@@H](N5CC(F)(F)C5)CC4)ccc32)ncc1C(=O)NC1(C(=O)O)C2CC3CC(C2)CC1C3 (some centres unmarked) , EC50 = < 10 nM

Log: RSV A2 strain, compound CC(F)(F)c1nc(-c2cn(C3CCC(F)(F)CC3)c3cc(O[C@H]4CC[C@H](N5CC(F)(F)C5)CC4)ccc23)ncc1C(=O)NC1(C(=O)O)C2CC3CC(C2)CC1C3 (some centres unmarked) , EC50 = < 10 nM

Log: RSV A2 strain, compound CCNC(=O)N1CCC2(CC1)CN(c1ncc(C(=O)NC3(C(=O)O)C4CC5CC(C4)CC3C5)c(C(F)(F)F)n1)c1ccc(C)cc12 (centres unmarked) , EC50 = < 10 nM

Log: RSV A2 strain, compound O=C(NC1(C(=O)O)C2CC3CC(C2)CC1C3)c1ccc(-c2cn(S(=O)(=O)C3CC3)c3cc(OC4CCN(c5ncccn5)CC4)ccc23)nc1C(F)(F)F (centres unmarked) , EC50 = < 10 nM

Log: RSV A2 strain, compound COc1ccc2c(c1)CCN2c1ccc(C(=O)NC2(C(=O)O)C3CC4CC(C3)CC2C4)c(C(F)(F)F)c1 (centres unmarked) , EC50 = 10 to 100 nM

Log: RSV A2 strain, compound CC(F)(F)c1nc(-c2cn(C3CCC(F)(F)CC3)c3cc(O[C@H]4CC[C@@H](N5CC(F)(F)C5)CC4)ccc23)ncc1C(=O)NC1(C(=O)O)C2CC3CC(C2)CC1C3 (some centres unmarked) , EC50 = < 10 nM

Log: RSV A2 strain, compound Cc1ccc2c(c1)C1(CCN(C(=O)OCc3ccccc3)CC1)CN2c1ncc(C(=O)NC2(C(=O)O)C3CC4CC(C3)CC2C4)c(C(F)(F)F)n1 (centres unmarked) , EC50 = 10 to 100 nM

Log: RSV A2 strain, compound O=C(NC1(C(=O)O)C2CC3CC(C2)CC1C3)c1cnc(N2CC3(CCOCC3)c3cc(OC4CN(C(=O)C5COC5)C4)ccc32)nc1C(F)(F)F (centres unmarked) , EC50 = < 10 nM

Log: RSV A2 strain, compound CC(C)(C)C(NC(=O)c1cnc(-c2cn(C3CCC(F)(F)CC3)c3cc(OC4CCN(c5ncccn5)CC4)ccc23)nc1C(F)(F)F)C(=O)O (racemic) , EC50 = < 10 nM

Log: RSV A2 strain, compound O=C(NC1(C(=O)O)C2CC3CC(C2)CC1C3)c1cnc(N2CC3(CCOCC3)c3cc(OCCC(F)(F)F)ncc32)nc1C(F)(F)F (centres unmarked) , EC50 = < 10 nM

---

# Test system: RSV A2 strain
# assay.name: In vitro CPE (CytoPathic Effect) inhibition effect evaluation test, RSV type A
# Type: cell-based
# reported.conditions: human respiratory syncytial virus; inhibitory effect against RSV type A (RSV A2 strain), HEp-2 cells, CPE inhibition; read-out: EC50
pEC50: −log10 of the molar value.
observed.property: pEC50

Measured pEC50, O=C(NC1(C(=O)O)C2CC3CC(C2)CC1C3)c1ccc(-c2cn(C(=O)OC3CCOCC3)c3cc(OC4CCN(c5ncccn5)CC4)ccc23)nc1C(F)(F)F (centres unmarked) [Compound I-152] : > 8.00

Measured pEC50, CC(F)(F)c1nc(N2CC3(CCOCC3)c3cc(-n4ncc5c4CCN(CC(F)(F)F)C5)ncc32)ncc1C(=O)NC1(C(=O)O)C2CC3CC(C2)CC1C3 (centres unmarked) [Compound I-602] : > 8.00

Measured pEC50, CC(F)(F)c1nc(N2CC3(CCCC3)c3cc(O[C@@H]4CCN(CC(F)(F)F)C4)ccc32)ncc1C(=O)NC1(C(=O)O)C2CC3CC(C2)CC1C3 (some centres unmarked) [Compound I-598] : > 8.00

Measured pEC50, CNC(=O)C1(NC(=O)c2cnc(N3CC4(CCOCC4)c4cc(OC5CCN(c6ncccn6)CC5)ccc43)nc2C(F)(F)F)C2CC3CC(C2)CC1C3 (centres unmarked) [Compound I-173] : 7.00 to 8.00

Measured pEC50, CC(F)(F)c1nc(N2CC3(CCOCC3)c3cc(OC4CCN(C5CS(=O)(=O)C5)CC4)ccc32)ncc1C(=O)NC1(C(=O)O)C2CC3CC(C2)CC1C3 (centres unmarked) [Compound I-593] : > 8.00

New cases:
Measured pEC50, O=C(NC1(C(=O)O)C2CC3CC(C2)CC1C3)c1cnc(-c2cn(C3CC3)c3cc(O[C@H]4CC[C@@H](N5CC(F)(F)C5)CC4)ccc23)nc1C(F)(F)F (some centres unmarked) [Compound I-543] : > 8.00

Measured pEC50, COc1ccc(CCc2ccc3c(c2)CCN3c2ncc(C(=O)NC3(C(=O)O)CCCCC3)c(C(F)(F)F)n2)cc1 [Compound I-25] : 7.00 to 8.00

Measured pEC50, CC(F)(F)c1nc(N2CC3(CCOCC3)c3cc(OC4CCN(C5CSC5)CC4)ccc32)ncc1C(=O)NC1(C(=O)O)C2CC3CC(C2)CC1C3 (centres unmarked) [Compound I-564] : > 8.00

Measured pEC50, O=C(NC1(C(=O)O)C2CC3CC(C2)CC1C3)c1cnc(-c2cn(C3CCC(F)(F)CC3)c3cc(OC4CCN(c5ncccc5F)CC4)ccc23)nc1C(F)(F)F (centres unmarked) [Compound I-241] : > 8.00

Measured pEC50, O=C(NC1(C(=O)O)C2CC3CC(C2)CC1C3)c1ccc(-c2cn(C3CCCOC3)c3cc(OC4CCN(c5ncccn5)CC4)ccc23)nc1C(F)(F)F (racemic) [Compound I-367] : > 8.00

Measured pEC50, CC(F)(F)c1nc(N2CC3(CCCCC3)c3cc(OC4CCN(c5ncc(F)cn5)CC4)ccc32)ncc1C(=O)NC1(C(=O)O)C2CC3CC(C2)CC1C3 (centres unmarked) [Compound I-396] : > 8.00
